System: SK-MEL-2 melanoma
assay text: NCI tumour cell line growth inhibition, 48 h

| compound | TGI |
| --- | --- |
| CC(=O)Oc1ccccc1C(=O)N=C1[Se]CCN1C(=O)c1ccccc1OC(C)=O | 3.91 µM |
| Cc1cccc2c1[C@]13OC(C)[C@]4(C)CC5OC(=O)[C@@]1(C)[C@@H]5[C@]34C(=O)O2 (stereo partly specified) | > 100 µM |
| OCC1OC(n2cnc3c2NC=NC[C@H]3O)C(O)C1O (stereo partly specified) | > 450 µM |
| CCN1C(=O)N(CC)C2C1NC(=S)N2/N=C/C=C/c1cccs1 (stereo unspecified) | > 100 µM |
| C#CC(=O)Nc1cccc(Nc2nc3c(c(NCc4ccccc4)n2)CCCC3)c1 | 1.98 µM |
| CCOC(=O)c1csc(NC(=O)C(C)N2CCCCC2)n1 (stereo unspecified) | > 100 µM |
| O=C(O)c1cccc(OCCO)c1 | > 100 µM |
| O=C1/C(=C\c2cccn2Cc2ccccc2)c2ccccc2N1c1c(Cl)cccc1Cl | > 30.1 µM |
| c1cc(-c2ncc(-c3ccc4c(c3)CCCO4)o2)ccn1 | 37.6 µM |
| CC1=C(C(=O)Nc2c(C)cccc2C)C(c2ccccc2Cl)C(C(=O)Nc2c(C)cccc2C)=C(C)N1 | > 100 µM |
| Cc1ccc(C2CC(c3ccco3)=NN2c2ccccc2)o1 (stereo unspecified) | > 100 µM |
| O=C1C(Cl)C(c2ccccc2)N1n1cnc2ccccc2c1=O (stereo unspecified) | > 100 µM |
| CCOC(=O)C1=C(Nc2cccc(OC)c2)OCC1=O | > 100 µM |
| CCOC(=O)[C@H](CCCNC(=O)OC(C)(C)C)NCc1ccc(OC)c(OC)c1 | > 100 µM |
| O=C1CSC(Cc2nc3ccccc3[nH]2)=N1 | 38.4 µM |
| COc1cccc(CCn2c(N)c(-c3ccccc3)c3ccc([N+](=O)[O-])cc3c2=O)c1 | 48.4 µM |

---

Listing of recorded TGI by entry.
System: PC-3 prostate
assay text: NCI tumour cell line growth inhibition, 48 h
value type: TGI

| compound | value type | result |
| --- | --- | --- |
| Cc1cccc2c1Oc1cc(Cl)ccc1C2NC(=O)CCN1CCOCC1 (centres undefined) | TGI | > 100 µM |
| COc1ccc2c(c1)CN1C(=N2)CSC1c1cc([N+](=O)[O-])ccc1Cl (centres undefined) | TGI | > 100 µM |
| CCN(CC)CC(C)(C)C(=O)/C=C/c1ccc(Cl)c(Cl)c1 | TGI | 3.51 µM |
| CC1(C)OCC2OC3(c4nc(C#N)c(N)o4)OC(C)(C)OC3C2O1 (centres undefined) | TGI | > 100 µM |

---

Tested on: TK-10 renal
assay text: NCI tumour cell line growth inhibition, 48 h

| molecule | assayed target | TGI |
| --- | --- | --- |
| COc1cccc(OC)c1/C=C1\OC(=O)c2cccc(OC)c21 | TK-10 renal | > 100 µM |
| COc1ccc(C[N+]23C(CC[C@H]2c2ccccc2)CC[C@H]3c2ccccc2)cc1 (stereo not given in full) | TK-10 renal | > 100 µM |
| O=C(/C=C/c1c(O)ccc2ccccc12)c1ccc2ccccc2c1 | TK-10 renal | > 100 µM |
| CCOC(=O)C1=C(C)N(N)C(=S)NC1c1ccc(C)cc1 (stereo not given) | TK-10 renal | > 100 µM |
| O=C(NCCCNC(=O)c1ccc2c(O)c(O)ccc2c1)c1ccc2c(O)c(O)ccc2c1 | TK-10 renal | > 85.6 µM |

---

Test system: NCI-H226 lung
assay text: NCI tumour cell line growth inhibition, 48 h

| molecule | TGI |
| --- | --- |
| COc1cccc(CCn2c(N)c(-c3ccccc3)c3ccc([N+](=O)[O-])cc3c2=O)c1 | 11.7 µM |
| Fc1ccc(Nc2cc(-n3nnc4ccccc43)nc3ccccc23)cc1 | > 69 µM |
| COc1ccccc1/C=C/c1cnccn1 | > 10 µM |
| CN(C)Cc1c[nH]c2c1C(=O)c1c(c(O)c3ccccc3c1O)C2=O | 33.3 µM |
| N#Cc1sc2nc(/C=C3/C=CC=CC3=O)c(O)n2c1N | > 100 µM |
| O=C(CCCN1CC=C(n2c(=O)[nH]c3ccccc32)CC1)c1ccc(F)cc1 | > 100 µM |
| CC1(C#N)CC(C)(C)C(/C=C2/CC(C)(C)C(/C=C3/OC(=N)CC3(C)C)=N2)=N1 (stereo not drawn) | > 100 µM |
| COc1ccc2c3c1O[C@H]1C(O)CCC4(O)[C@@H](C2)NCC[C@]314 (stereo partly drawn) | > 100 µM |
| O=C(O)c1c(-c2nccc3ccccc23)[nH]c(-c2ccccc2)c1S(=O)(=O)O | > 100 µM |
| CCN(CC)/C(Cl)=C(Cl)\C(=C1\Nc2ccc(OC)cc21)[N+](=O)[O-] | 69.2 µM |
| O=C(c1ccccc1)c1c(-c2ccccc2)[nH]n(-c2ccc([N+](=O)[O-])cc2)c(=O)c1=O | > 100 µM |
| O=C(CCC(=O)Nc1cccc(Cl)c1)CC(=O)c1ccc(Cl)cc1 | > 100 µM |
| COc1cccc(OC)c1/C=C1\OC(=O)c2cccc(OC)c21 | > 29.5 µM |

---

System: EKVX NSCLC
assay text: NCI tumour cell line growth inhibition, 48 h

| compound | assayed target | TGI |
| --- | --- | --- |
| NC(=O)C(=CNc1nc(-c2ccc(Cl)c(Cl)c2)cs1)C(N)=O | EKVX NSCLC | > 100 µM |
| CC(C)CC1[C@@H](OCc2ccccc2)COS(=O)N1Cc1ccccc1 (stereo partly specified) | EKVX NSCLC | > 100 µM |
| O=C(Nc1cccc(Cl)c1)c1cc2ccccc2cc1O | EKVX NSCLC | > 100 µM |
| Cc1cn2c(=O)c3ccccc3nc2s1 | EKVX NSCLC | > 100 µM |
| CSC1(CC(=O)N(C)C)C(=O)Nc2ccccc21 (stereo unspecified) | EKVX NSCLC | > 100 µM |
| Cc1[nH][nH]c(=O)c1C=Nc1ccc(-c2nc3ccccc3[nH]2)cc1 | EKVX NSCLC | 51.1 µM |
| O=C(C[n+]1ccccc1)NNC(=O)/C(=C/c1ccc2c(c1)OCO2)NC(=O)c1ccccc1 | EKVX NSCLC | > 100 µM |
| CCOC(=O)CCc1c(C)c2c(OC(C)=O)cc(OC(C)=O)cc2oc1=O | EKVX NSCLC | > 100 µM |
| CCOC(=O)C1(C(=O)OCC)CN(CC)CN(c2ccccc2)C1 | EKVX NSCLC | 34 µM |
| O=C(CCC/C(CC(=O)c1ccc(Br)cc1)=N\O)Nc1ccccc1 | EKVX NSCLC | > 100 µM |
| CN(C)Cc1c[nH]c2c1C(=O)c1c(c(O)c3ccccc3c1O)C2=O | EKVX NSCLC | 5.28 µM |
| CCN(CC)CCOc1ccc(/C(=C(\C)c2ccc(F)c(OC)c2)c2ccc(Cl)cc2)cc1 | EKVX NSCLC | 5.39 µM |
| CCN(CC)c1ccc2cc(-c3nnc(-c4ccccc4)o3)c(=O)oc2c1 | EKVX NSCLC | > 100 µM |
| COc1ccccc1/C=C/c1cnccn1 | EKVX NSCLC | > 10 µM |
| O=C(NCCCNC(=O)c1ccc2c(O)c(O)ccc2c1)c1ccc2c(O)c(O)ccc2c1 | EKVX NSCLC | > 79.9 µM |
| C[C@]12CCC(=O)C=C1CC[C@@H]1C2CC[C@]2(C)c3nn(-c4ccc(F)cc4)nc3CC12 (stereo partly specified) | EKVX NSCLC | > 100 µM |
| N#Cc1sc2nc(/C=C3/C=CC=CC3=O)c(O)n2c1N | EKVX NSCLC | > 100 µM |
| NS(=O)(=O)c1ccc(-n2c(-c3cccs3)nc3ccc(I)cc3c2=O)cc1 | EKVX NSCLC | 54.3 µM |
| C#CC(=O)Nc1cccc(Nc2nc3c(c(NCc4ccccc4)n2)CCCC3)c1 | EKVX NSCLC | 1.99 µM |
| CCN(CC)CC(C)(C)C(=O)/C=C/c1ccc(Cl)c(Cl)c1 | EKVX NSCLC | 3.1 µM |
| CC(C)=CCS(=O)c1ccccc1NC1=CC(=O)CC(C)(C)C1 (stereo unspecified) | EKVX NSCLC | > 100 µM |
| OCC1OC(n2cnc3c2NC=NC[C@H]3O)C(O)C1O (stereo partly specified) | EKVX NSCLC | > 450 µM |
| COc1cc(NC(C)CCCN)c2nccc(C)c2c1OC (stereo unspecified) | EKVX NSCLC | 33.8 µM |
| O=[N+]([O-])c1ccc(-n2nnc(C3=NCCCN3)c2-c2ccc(Cl)cc2)cc1 | EKVX NSCLC | > 100 µM |
| C#CCn1ncc2c(SCc3ccccc3)ncnc21 | EKVX NSCLC | > 100 µM |
| CN(Nc1cc(=O)[nH]c(=O)[nH]1)c1ccccc1 | EKVX NSCLC | > 100 µM |
| O=c1[nH]c2cc(Cl)ccc2n1C1CCN(CCCC(c2ccc(F)cc2)c2ccc(F)cc2)CC1 | EKVX NSCLC | 3.38 µM |
| CCOC(=O)[C@H](CCCNC(=O)OC(C)(C)C)NCc1ccc(OC)c(OC)c1 | EKVX NSCLC | > 100 µM |
| c1cc(-c2ncc(-c3ccc4c(c3)CCCO4)o2)ccn1 | EKVX NSCLC | > 100 µM |
| COc1ccc2c(c1)CCc1c-2[nH]c2ccc(OC)cc12 | EKVX NSCLC | > 100 µM |
| Cc1cn2c(/C=C3/C(=O)Nc4ccccc43)c(-c3ccc(Cl)cc3)nc2s1 | EKVX NSCLC | 18.8 µM |
| N#Cc1c(-c2ccccc2)[nH]c2ccccc2c1=O | EKVX NSCLC | > 100 µM |
| Cc1cn(C2CC(N(O)Cc3ccccc3)C(CO)O2)c(=O)[nH]c1=O (stereo unspecified) | EKVX NSCLC | > 100 µM |
| Cc1ccc2nc(-c3ccc(N)c(I)c3)sc2c1 | EKVX NSCLC | > 100 µM |
| CC1=CC(C2/C(=N/O)C=C(C)CC2(C)C)C(O)C(C)(C)C1 (stereo unspecified) | EKVX NSCLC | 31.4 µM |
| COc1c(C)c2c(c(C)c1Cl)Oc1c(C=O)c(O)c(Cl)c(C)c1C(=O)O2 | EKVX NSCLC | 46.2 µM |
